Where do the numbers come from? From ChEMBL document CHEMBL3526047.

assay: Tmax in healthy obese adult male human at 25 mg, po administered as single dose; format: ADME, organism-based; conditions: in vivo
readout: Tmax
Report field: quantity (unit follows the number).

(Q) Consider the compound CCNC1(C(N)=O)CCN(c2ncnc3c2nc(-c2ccccc2Cl)n3-c2ccc(Cl)cc2)CC1.Cl [OTENABANT HYDROCHLORIDE] . State its measured Tmax.
(A) 6 h

----------
assay: Cmax in healthy obese adult male human at 25 mg, po administered as single dose; type: ADME, organism-based; set-up: dose 25 mg, route oral; conditions: in vivo
readout: Cmax (ng/mL)
Expressed in ng/mL, but write only the number.

(Q) Please look at this molecule and report its Cmax: CCNC1(C(N)=O)CCN(c2ncnc3c2nc(-c2ccccc2Cl)n3-c2ccc(Cl)cc2)CC1.Cl [OTENABANT HYDROCHLORIDE]
(A) 14

----------
Attribute: Drug excretion
experiment: Drug excretion in feces of healthy obese adult male human treated with [14C]CP-945,598 at 25 mg, po administered as single dose after 0 to 384 hrs hrs by HPLC method; format: ADME, organism-based; conditions: in vivo
Kindly answer with a numeric value in %, unit omitted.

1) NC(=O)C1(N)CCN(c2ncnc3c2nc(-c2ccccc2Cl)n3-c2ccc(Cl)cc2)CC1 | 4.5
2) NC(=O)C1(NO)CCN(c2ncnc3c2nc(-c2ccccc2Cl)n3-c2ccc(Cl)cc2)CC1 | 1.2
3) NC(=O)C1(NC2O[C@H](CO)[C@@H](O)[C@H]2O)CCN(c2ncnc3c2nc(-c2ccccc2Cl)n3-c2ccc(Cl)cc2)CC1 (some centres undefined) | 6.3

As a next step, examine the compound that follows.
(Q) Annotate the compound `NC1(C(=O)O)CCN(c2ncnc3c2nc(-c2ccccc2Cl)n3-c2ccc(Cl)cc2)CC1` with its measured Drug excretion.
(A) 30.9

----------
tested on: Homo sapiens; test: AUC (0 to last) in healthy obese adult male human treated with [14C]CP-945,598 at 25 mg, po administered as single dose; type: ADME, organism-based, Plasma; parameters: dose 25 mg, route oral, time 0 - last; details: in vivo
readout: AUClast (ng·h/mL)
Dear colleague, please return just the value in ng·h/mL, with no unit written.

(Q) State its AUClast for this molecule: `NC(=O)C1(N)CCN(c2ncnc3c2nc(-c2ccccc2Cl)n3-c2ccc(Cl)cc2)CC1`
(A) 3730

----------
system: Homo sapiens; test: Total drug excretion in healthy obese adult male human treated with [14C]CP-945,598 at 25 mg, po administered as single dose after 0 to 384 hrs hrs by HPLC method; type: ADME, organism-based; details: in vivo
readout: Drug excretion (%)
I only need the number, in %, no unit after it.

// known answers, use as guide
1) NC(=O)C1(NO)CCN(c2ncnc3c2nc(-c2ccccc2Cl)n3-c2ccc(Cl)cc2)CC1 | 1.8
2) NC(=O)C1(N)CCN(c2ncnc3c2nc(-c2ccccc2Cl)n3-c2ccc(Cl)cc2)CC1 | 6.8
3) NC1(C(=O)O)CCN(c2ncnc3c2nc(-c2ccccc2Cl)n3-c2ccc(Cl)cc2)CC1 | 36.3
4) NC(=O)C1(NO[C@@H]2O[C@H](CO)[C@@H](O)[C@H](O)[C@H]2O)CCN(c2ncnc3c2nc(-c2ccccc2Cl)n3-c2ccc(Cl)cc2)CC1 | 4.8

Kindly consider the entry below.
(Q) Provide Homo sapiens Drug excretion reading for NC(=O)C1(NC2O[C@H](CO)[C@@H](O)[C@H]2O)CCN(c2ncnc3c2nc(-c2ccccc2Cl)n3-c2ccc(Cl)cc2)CC1 (stereo not given in full) .
(A) 6.3
